- Test system: MALME-3M melanoma
- measurementProtocol: NCI tumour cell line growth inhibition, 48 h; in the data active means GI50 below about 0.43 µM; inactive means the rest
Outcome field: choose from active, inactive

Please review the entries below; each comes with its answer.
1) O=C(O)c1ccc(NCc2nc3ccccc3[nH]2)cc1 : inactive
2) COc1cc(N2CCN(C(C)C)CC2)ccc1Nc1nc(Nc2ccc(F)cc2C(=O)NCC(O)CO)c2cc[nH]c2n1 (centres undefined) : inactive
3) CCOC(=O)Nc1ccc2nc(N3CCCCCC3)sc2c1 : inactive
4) Clc1ccc(-c2nc3c(-c4ccccc4)nc(-c4ccccc4)cn3c2-c2ccc(Cl)cc2)cc1 : inactive
5) COc1ccc(C2CC(c3ccccc3)=NN2C(=O)c2cc(OC)c(OC)c(OC)c2)cc1O (centres undefined) : inactive
6) Cc1cc2c(C(=O)NCC#N)cccc2n1-c1nc2c(c(NCc3ccccc3)n1)CCCC2 : active
7) O=C(/C=C\c1cc(Br)ccc1O)/C=C/c1cc(Br)ccc1O : inactive
8) CC(C)C(=O)Nc1ccc(-c2nc(-c3cccc(OCCN4CCOCC4)c3)c(-c3ccnc(Br)c3)[nH]2)cc1 : inactive

*Q* Dear all, I need the recorded test outcome for COc1ccc(C2=NN(C=O)C(c3ccc(OS(=O)(=O)c4ccc(C)cc4)c(OC)c3)C2)cc1 (centres undefined) , thank you.
*A* inactive

###

- Tested on: 786-0 renal
- measurementProtocol: NCI tumour cell line growth inhibition, 48 h; in the data active means GI50 below about 0.43 µM; inactive means the rest
Outcome field: choose from T for active, F for inactive

Please review the entries below; each comes with its answer.
1) NS(=O)(=O)c1ccc(N=Nc2c(O)[nH]c3ccc(C(=O)NCCc4cnc[nH]4)cc23)cc1 : F
2) COc1cc(-c2cc(-c3cccs3)c(C#N)c(N3CCOCC3)n2)cc(OC)c1OC : F
3) C[C@@H]1CC[C@H]2[C@@H](C)C(OC/C=C/COC3O[C@@H]4O[C@@]5(C)CC[C@H]6[C@H](C)CC[C@@H]([C@H]3C)[C@@]46OO5)O[C@@H]3O[C@@]4(C)CC[C@@H]1[C@]32OO4 (stereo not given in full) : T

*Q* Dear all, I need the recorded test outcome for CN1CCN(Cc2ccc(NC(=O)c3cncc(C#Cc4c(N)ncc5c(F)cccc45)c3)cc2C(F)(F)F)CC1 , thank you.
*A* F

*Q* Dear all, I need the recorded test outcome for COc1ccc(CN2C(=O)/C(=C\C(=O)c3ccc(OCCN4CCCC4)cc3)c3ccccc32)cc1 , thank you.
*A* F

###

Overview of reported TGI across a group of molecules:
- Test system: NCI-H226 lung
- measurementProtocol: NCI tumour cell line growth inhibition, 48 h
State just the number; it will be interpreted in µM.

Solved cases (3 shown):
1) Cc1occc1C(=S)Nc1ccc(Cl)c(C(=O)OCC(C)C)c1 : 30.4
2) C/C(=N\Nc1nc2ccccc2o1)c1ncccn1 : 0.64
3) CCCCCCCCCCCCNC(=O)N[C@H](C(=O)N[C@H]1/C=C/CCNC(=O)/C=C/[C@H](C)NC1=O)C(C)C : 0.167

Consider now this further molecule.
*Q* Which TGI is reported for this molecule? CC1=NN(c2cccc(Cl)c2)C2(C1=Cc1cccs1)C(Cl)C(=O)N2c1nc2ccccc2s1 (stereo unspecified)
*A* 53.5

###

- System: DLD-1 colon
- measurementProtocol: NCI tumour cell line growth inhibition, 48 h
outcomeMeasure: TGI

1) CCC(C)C(=O)O[C@H]1C(=O)O[C@@H]2C[C@H]3C(C)=CC(=O)[C@@H](O)[C@]3(C)[C@H]3[C@@H](O)[C@H](O)[C@@]4(C)OC[C@]32[C@@H]14 (some centres undefined) : 0.317 µM

*Q* Request: TGI, test system DLD-1 colon, entry O=C(CC(=O)N1N=C(n2ccc3ccccc32)CC1c1ccccc1)Nc1ccc(Cl)cc1 (centres undefined)
*A* > 100 µM

*Q* Request: TGI, test system DLD-1 colon, entry O=C(CN(Cc1ccccc1)Cc1ccccc1)N1CCc2c([nH]c3ccccc23)C1c1cccnc1 (centres undefined)
*A* > 100 µM

*Q* Request: TGI, test system DLD-1 colon, entry O=S1(=O)OCCOS(=O)(=O)C1(Cl)Cl
*A* > 100 µM

Provenance of the data: PubChem BioAssay (NCI)
